The reader will find reported remaining at 24 h values listed item by item below.
Test: Stability of the compound in rat plasma assessed as parent compound remaining after 24 hrs
Assay type: ADME, cell-free
Conditions: read-out: Stabilty
Starred links: 1 amine or outer side, 2 acyl side, 3 side chain; linkers in the order of their positions; H or OH if unused. Non-standard residues stand in square brackets, D forms with d. Residues, ends and D or L forms follow the SMILES beside them. *: point of attachment. X6 = C[C@H](CO[C@H](CC1C[C@H]2CC[C@@H](C1)C2)[C@@H](C)C(=O)[*:2])N[*:1]; dAlaψ(CH2NBu)Nle = CCCC[C@@H](C(=O)[*:2])N(CCCC)C[C@@H](C)N[*:1]; X3 = C[C@H](CO[C@H](CC1CC2(CCC2)C1)[C@@H](C)C(=O)[*:2])N[*:1]; X1 = CCCCCC[C@@H](OC[C@@H](C)N[*:1])[C@@H](C)C(=O)[*:2]; Cyclobutyl(trans-3-NH2) = N[C@H]1C[C@H](*)C1; X4 = CCCCCCN(CCN[*:1])[C@@H](C)C(=O)[*:2]; Gly(cHept) = N[C@H](C(=O)O)C1CCCCCC1; aThr = C[C@H](O)[C@H](N)C(=O)O; NMeL = CN[C@@H](CC(C)C)C(=O)O; Chg = N[C@H](C(=O)O)C1CCCCC1; NMeNva = CCC[C@H](NC)C(=O)O; X2 = NC[C@H]1C[C@H](*)C1; Dap = NC[C@H](N)C(=O)O; X5 = NCCCNCCC*
Report as a plain number; the unit % is understood.

As a guide, the following entries are already answered.
CCCC[C@H]1C(=O)N(C)[C@@H](CC(C)C)C(=O)N[C@@H](C2CCCCC2)C(=O)N[C@@H](CN)C(=O)N[C@@H]([C@H](C)O)C(=O)N[C@H](C)CN1CCCC (cyclo([Chg][Dap][aThr][dAlaψ(CH2NBu)Nle][NMeL])); 102
CCCC[C@H]1C(=O)N(C)[C@@H](CCC)C(=O)N[C@@H](C2CCCCC2)C(=O)N[C@@H](CN)C(=O)N[C@@H](CO[C@H]2C[C@H](N)C2)C(=O)N[C@H](C)CN1CCCC (cyclo([Chg][Dap]S(Cyclobutyl(trans-3-NH2))[dAlaψ(CH2NBu)Nle][NMeNva])); 58
CCCCCC[C@H]1OC[C@@H](C)NC(=O)[C@H](CO[C@H]2C[C@H](CN)C2)NC(=O)[C@H](CN)NC(=O)[C@H](C2CCCCCC2)NC(=O)[C@H](CCC)N(C)C(=O)[C@@H]1C (cyclo([Dap]S(X2)[X1][NMeNva][Gly(cHept)])); 96
CCC[C@H]1C(=O)N[C@@H](C2CCCCCC2)C(=O)N[C@@H](CN)C(=O)N[C@@H](CO[C@H]2C[C@H](N)C2)C(=O)N[C@H](C)CO[C@H](CC2CC3(CCC3)C2)[C@@H](C)C(=O)N1C (cyclo([Dap]S(Cyclobutyl(trans-3-NH2))[X3][NMeNva][Gly(cHept)])); 90
CCC[C@H]1C(=O)N[C@@H](C2CCCCCC2)C(=O)N[C@@H](CN)C(=O)N[C@@H](CO[C@H]2C[C@H](N)C2)C(=O)N[C@H](C)CO[C@H](CC2C[C@H]3CC[C@@H](C2)C3)[C@@H](C)C(=O)N1C (stereo partly drawn) (cyclo([Dap]S(Cyclobutyl(trans-3-NH2))[X6][NMeNva][Gly(cHept)])); 94
CCCCCC[C@H]1OC(=O)CNC(=O)[C@H]([C@H](C)O)NC(=O)[C@H](CO)NC(=O)[C@H]([C@H](C)CC)NC(=O)[C@H](CC(C)C)N(C)C(=O)[C@@H]1C; 1
CCC[C@H]1C(=O)N[C@@H](C2CCCCCC2)C(=O)N[C@@H](CN)C(=O)N[C@@H](COCCCNCCCN)C(=O)N[C@H](C)CO[C@H](CC2CC3(CCC3)C2)[C@@H](C)C(=O)N1C (cyclo([Dap]S(X5)[X3][NMeNva][Gly(cHept)])); 118

Entry CCCCCCN1CCNC(=O)[C@H](CO[C@H]2C[C@H](N)C2)NC(=O)[C@H](CN)NC(=O)[C@H](C2CCCCC2)NC(=O)[C@H](CC(C)C)N(C)C(=O)[C@@H]1C (cyclo([Chg][Dap]S(Cyclobutyl(trans-3-NH2))[X4][NMeL])) , remaining at 24 h reported as 60

Ref: ChEMBL document CHEMBL4665734
